- test.system: KRAS G12D (Homo sapiens (Human), UniProt P01116+P62937, G12D)
- Sequence (P01116 other isoform, or with tags, fused parts or gaps G12D): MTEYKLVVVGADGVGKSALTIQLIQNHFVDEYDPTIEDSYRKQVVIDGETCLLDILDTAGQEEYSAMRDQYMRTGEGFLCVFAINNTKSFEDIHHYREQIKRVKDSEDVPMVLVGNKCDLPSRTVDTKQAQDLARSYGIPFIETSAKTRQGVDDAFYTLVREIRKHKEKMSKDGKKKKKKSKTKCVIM
- Sequence (P62937 whole entry): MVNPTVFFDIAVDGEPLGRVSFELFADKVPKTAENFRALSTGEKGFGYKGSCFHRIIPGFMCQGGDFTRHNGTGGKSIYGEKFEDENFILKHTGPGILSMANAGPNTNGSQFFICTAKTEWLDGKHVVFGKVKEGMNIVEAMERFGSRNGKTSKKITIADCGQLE
- measurement.notes: Ras-Raf disruption/FRET/MOA assay (BRAF RBD, Cyclophilin A)
- Type: biochemical
- condition.set: read-out: KRAS G12D FRET IC50
Recorded IC50 for the following compounds

Provide only the value of recorded IC50 for CCn1c(-c2cccnc2[C@H](C)OC)c2c3cc(ccc31)-c1csc(n1)C[C@H](NC(=O)[C@H](C(C)C)N(C)C(=O)N1CC3(CCCN(C)C3=O)C1)C(=O)N1CCC[C@H](N1)C(=O)OCC(C)(C)C2 > 10000 nM

Entry CCn1c(-c2cccnc2[C@H](C)OC)c2c3cc(ccc31)-c1cc(O)cc(c1)C[C@H](NS(=O)(=O)N1CCC1)C(=O)N1CCC[C@H](N1)C(=O)OCC(C)(C)C2 needs its IC50 filled in; supply it. > 10000 nM

Read the entry CCn1c(-c2cccnc2[C@H](C)OC)c2c3cc(ccc31)-c1cc(O)cc(c1)C[C@H](NC(=O)[C@H](C(C)C)N(C)C(=O)C1CCNC13CCC3)C(=O)N1CCC[C@H](N1)C(=O)OCC(C)(C)C2 (stereo partly drawn) and write its reported IC50. 10 to 100 nM

Please supply the value of reported IC50 for the item CCn1c(-c2cccnc2[C@H](C)OC)c2c3cc(ccc31)-c1csc(n1)C[C@H](NC(=O)[C@H](C(C)C)N(C)C(=O)[C@H]1CCN(C(=O)CN(C)C)C1)C(=O)N1CCC[C@H](N1)C(=O)OCC(C)(C)C2 1000 to 10000 nM

Look up and report measured IC50 for this entry: CCn1c(-c2cccnc2[C@H](C)OC)c2c3cc(ccc31)-c1csc(n1)C[C@H](NC(=O)[C@H](C(C)C)N(C)C(=O)N1CC(OC(F)(F)F)C1)C(=O)N1CCC[C@H](N1)C(=O)OCC(C)(C)C2 1000 to 10000 nM

We now examine a further compound.
Provide measured IC50 value, entry: CCn1c(-c2cccnc2[C@H](C)OC)c2c3cc(ccc31)-c1cc(O)cc(c1)C[C@H](NC(=O)[C@H](C(C)C)N(C)C(=O)C1CNCCNC1)C(=O)N1CCC[C@H](N1)C(=O)OCC(C)(C)C2 100 to 1000 nM

###

In this section, each of the molecules is paired with its reported pIC50.
- test.system: NRAS Q61K (Homo sapiens (Human), UniProt P01111+P62937, Q61K)
- Sequence (P01111 whole entry Q61K, one chain of several): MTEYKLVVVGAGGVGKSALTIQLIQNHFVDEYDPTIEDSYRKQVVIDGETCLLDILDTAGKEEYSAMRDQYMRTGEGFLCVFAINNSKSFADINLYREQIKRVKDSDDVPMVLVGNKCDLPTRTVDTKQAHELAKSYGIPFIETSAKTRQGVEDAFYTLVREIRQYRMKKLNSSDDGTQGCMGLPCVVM
- measurement.notes: Ras-Raf disruption/FRET/MOA assay (BRAF RBD, Cyclophilin A)
- Format: biochemical
- Method: Compound is present in plate wells as a 10-point 3-fold dilution series starting at a final concentration of 30 μM. After incubation at 25° C. for 3 hours, a mixture of Anti-His Eu—W1024 and anti-GST allophycocyanin is then added to assay sample wells at final concentrations of 10 nM and 50 nM, respectively, and the reaction incubated for an additional 1.5 hours. […]
pIC50: −log10 of the molar value.

// fetch pIC50 given entry CCn1c(-c2cccnc2[C@H](C)OC)c2c3cc(ccc31)-c1csc(n1)C[C@H](NC(=O)[C@H](C(C)C)N(C)C(=O)N1CC3(CCOCC3)C1)C(=O)N1CCC[C@H](N1)C(=O)OCC(C)(C)C2 6.00 to 7.00

// fetch pIC50 given entry CCn1c(-c2cccnc2[C@H](C)OC)c2c3cc(ccc31)-c1cc(c3cn[nH]c3c1)C[C@H](NC(=O)[C@H](C(C)C)N(C)C(C)=O)C(=O)N1CCC[C@H](N1)C(=O)OCC(C)(C)C2 5.00 to 6.00

Return pIC50 (reported value) for this molecule: CCn1c(-c2cccnc2[C@H](C)OC)c2c3cc(ccc31)-c1csc(n1)C[C@H](NC(=O)[C@H](C(C)C)N(C)C(=O)N(C)[C@H]1CCCN(C)C1)C(=O)N1CCC[C@H](N1)C(=O)OCC(C)(C)C2 6.00 to 7.00

Note pIC50 for the molecule shown: CCn1c(-c2cccnc2[C@H](C)OC)c2c3cc(ccc31)-c1csc(n1)C[C@H](NC(=O)[C@H](C(C)C)N(C)C(=O)[C@@H]1OCC[C@@H]1c1ccccc1)C(=O)N1CCC[C@H](N1)C(=O)OCC(C)(C)C2 6.00 to 7.00

For CCn1c(-c2cccnc2[C@H](C)OC)c2c3cc(ccc31)-c1cc(O)cc(c1)C[C@H](NC(=O)[C@H](C(C)C)N(C)C(=O)N1CC(N(C)C)C1)C(=O)N1CCC[C@H](N1)C(=O)OCC(C)(C)C2 , write its pIC50. 7.00 to 8.00

Check the records and state pIC50 for CCn1c(-c2cc(N3CCN(C)CC3)cnc2[C@H](C)OC)c2c3cc(ccc31)-c1csc(n1)C[C@H](NC(=O)[C@H](C(C)C)N(C)C(=O)[C@H]1CCCS1(=O)=O)C(=O)N1CCC[C@H](N1)C(=O)OCC(C)(C)C2 6.00 to 7.00

***
For the molecule CCn1c(-c2cccnc2[C@H](C)OC)c2c3cc(ccc31)-c1csc(n1)C[C@H](NC(=O)[C@@H]1CCO1)C(=O)N1CCC[C@H](N1)C(=O)OCC(C)(C)C2 , report pIC50. 6.00 to 7.00

Item CCn1c(-c2cccnc2[C@H](C)OC)c2c3cc(ccc31)-c1csc(n1)C[C@H](NC(=O)[C@H](C(C)C)N(C)C(=O)N1[C@H](C)COC[C@@H]1C)C(=O)N1CCC[C@H](N1)C(=O)OCC(C)(C)C2 : provide pIC50 6.00 to 7.00

Using known records, supply pIC50 for CCn1c(-c2cccnc2[C@H](C)OC)c2c3cc(ccc31)-c1csc(n1)C[C@H](NC(=O)[C@H](C(C)C)N(C)C(=O)N1CCO[C@@]3(CCN(C)C3)C1)C(=O)N1CCC[C@H](N1)C(=O)OCC(C)(C)C2 6.00 to 7.00

Note pIC50 for the molecule shown: CCn1c(-c2cccnc2[C@H](C)OC)c2c3cc(ccc31)-c1csc(n1)C[C@H](NC(=O)[C@H](C(C)C)N(C)C(=O)N1CC[C@H]1CN(C)C)C(=O)N1CCC[C@H](N1)C(=O)OCC(C)(C)C2 5.00 to 6.00

Give the reported pIC50 for this molecule. CCn1c(-c2cccnc2[C@H](C)OC)c2c3cc(ccc31)-c1cc(cc(C(F)F)c1)C[C@H](NC(=O)[C@H](C(C)C)N(C)C(=O)[C@@H]1OCC[C@@H]1c1ccccc1)C(=O)N1CCC[C@H](N1)C(=O)OCC(C)(C)C2 6.00 to 7.00

###

- test.system: KRAS G12V (Homo sapiens (Human), UniProt P01116+P62937, G12V)
- Sequence (P01116 other isoform, or with tags, fused parts or gaps G12V, one chain of several): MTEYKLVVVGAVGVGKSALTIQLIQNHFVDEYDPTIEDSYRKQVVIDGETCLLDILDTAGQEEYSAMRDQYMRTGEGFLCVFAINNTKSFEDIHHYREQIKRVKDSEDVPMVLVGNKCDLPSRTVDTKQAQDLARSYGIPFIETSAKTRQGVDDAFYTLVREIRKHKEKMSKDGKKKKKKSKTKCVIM
- measurement.notes: Ras-Raf disruption/FRET/MOA assay (BRAF RBD, Cyclophilin A)
- Assay type: biochemical
- condition.set: read-out: KRAS G12V FRET IC50
Below: a set of entries, each annotated with reported IC50.

Determine from records and report IC50 for CCO[C@@H]1c2nc(cs2)-c2ccc3c(c2)c(c(-c2cccnc2[C@H](C)OC)n3CC)CC(C)(C)COC(=O)[C@@H]2CCCN(N2)C(=O)[C@H]1NC(=O)[C@H]1[C@H](C)[C@@H]1c1cn(C)cn1 10 to 100 nM

Kindly indicate its recorded IC50. Item: CCn1c(-c2cccnc2[C@H](C)OC)c2c3cc(ccc31)-c1csc(n1)C[C@H](NC(=O)[C@H](C(C)C)N(C)C(=O)N1CCOC[C@H]1C)C(=O)N1CCC[C@H](N1)C(=O)OCC(C)(C)C2 100 to 1000 nM

Determine from records and report IC50 for CCn1c(-c2cccnc2[C@H](C)OC)c2c3cc(ccc31)-c1csc(n1)C[C@H](NC(=O)[C@H](C(C)C)N(C)C(=O)C1COC1)C(=O)N1CCC[C@H](N1)C(=O)OCC(C)(C)C2 1000 to 10000 nM

###

- test.system: KRAS Q61H (Homo sapiens (Human), UniProt P01116+P62937, Q61H)
- Sequence (P01116 other isoform, or with tags, fused parts or gaps Q61H): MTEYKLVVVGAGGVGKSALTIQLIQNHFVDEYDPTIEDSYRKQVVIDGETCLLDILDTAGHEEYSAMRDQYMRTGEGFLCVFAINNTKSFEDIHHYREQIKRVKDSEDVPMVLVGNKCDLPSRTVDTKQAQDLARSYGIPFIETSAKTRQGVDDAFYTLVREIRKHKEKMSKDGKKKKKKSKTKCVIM
- Sequence (P62937 whole entry): as the sequence (P62937 whole entry) above
- measurement.notes: Ras-Raf disruption/FRET/MOA assay (BRAF RBD, Cyclophilin A)
- Format: biochemical
- Procedure: Compound is present in plate wells as a 10-point 3-fold dilution series starting at a final concentration of 30 μM. After incubation at 25° C. for 3 hours, a mixture of Anti-His Eu—W1024 and anti-GST allophycocyanin is then added to assay sample wells at final concentrations of 10 nM and 50 nM, respectively, and the reaction incubated for an additional 1.5 hours. […]
# IC50 per record follows

Return value of IC50 for input CCn1c(-c2cccnc2[C@H](C)OC)c2c3cc(ccc31)-c1csc(n1)C[C@H](NC(=O)[C@H](C(C)C)N(C)C(=O)N1CC([C@H](C)N(C)C)C1)C(=O)N1CCC[C@H](N1)C(=O)OCC(C)(C)C2 , no commentary. 10 to 100 nM
